Reference for the values: patent US10336762B2

# target.desc: IRAK4 enzyme (Homo sapiens (Human))
# test.details: biochemical
# Format: biochemical
# protocol.conditions: IRAK4 enzyme, TR-FRET, 500 μM ATP
attribute.measured: IC50 (nM)

[
  {
    "molecule": "CC(C)Nc1cc(-c2ccc3cc(-c4nnn[nH]4)cnn23)ncc1C(=O)NC[C@@H](F)C(C)(C)O [Example 17]",
    "measurement.qualifier": "=",
    "quantitative.readout": 24
  },
  {
    "molecule": "CC(C)(O)[C@H](F)CNC(=O)c1cnc(-c2ccc3cc(C#N)cnn23)cc1Nc1ccc(-n2ncnn2)cc1 [Example 176]",
    "measurement.qualifier": "=",
    "quantitative.readout": 1
  },
  {
    "molecule": "CC(C)(O)[C@H](F)CNC(=O)c1cnc(-c2ccc3cc(C#N)cnn23)cc1NC1CCOCC1 [Example 42]",
    "measurement.qualifier": "<",
    "quantitative.readout": 1
  },
  {
    "molecule": "CC(C)(O)[C@H](F)CNC(=O)c1cnc(-c2ccc3cc(C#N)cnn23)cc1N[C@H]1CCCN(S(C)(=O)=O)C1 [Example 257]",
    "measurement.qualifier": "=",
    "quantitative.readout": 1
  },
  {
    "molecule": "CC1(Nc2cc(-c3ccc4cc(C#N)cnn34)ncc2C(=O)NC[C@@H](F)C(C)(C)O)COC1 [Example 1]",
    "measurement.qualifier": "<",
    "quantitative.readout": 1
  },
  {
    "molecule": "CC(C)Nc1cc(-c2ccc3cc(C#N)cnn23)ncc1C(=O)NC1CCC(NC(=O)C(C)(C)O)CC1 (stereo not shown) [Example 135]",
    "measurement.qualifier": "=",
    "quantitative.readout": 2
  },
  {
    "molecule": "COCC(=O)N[C@H]1CC[C@H](Nc2cc(-c3ccc4cc(C#N)cnn34)ncc2C(=O)NC[C@@H](F)C(C)(C)O)CC1 [Example 284]",
    "measurement.qualifier": "=",
    "quantitative.readout": 1
  }
]

* * *

Quick list: pIC50 per entry.
# target.desc: IRAK4 enzyme (Homo sapiens (Human), UniProt Q9NWZ3)
# Sequence (Q9NWZ3 whole entry): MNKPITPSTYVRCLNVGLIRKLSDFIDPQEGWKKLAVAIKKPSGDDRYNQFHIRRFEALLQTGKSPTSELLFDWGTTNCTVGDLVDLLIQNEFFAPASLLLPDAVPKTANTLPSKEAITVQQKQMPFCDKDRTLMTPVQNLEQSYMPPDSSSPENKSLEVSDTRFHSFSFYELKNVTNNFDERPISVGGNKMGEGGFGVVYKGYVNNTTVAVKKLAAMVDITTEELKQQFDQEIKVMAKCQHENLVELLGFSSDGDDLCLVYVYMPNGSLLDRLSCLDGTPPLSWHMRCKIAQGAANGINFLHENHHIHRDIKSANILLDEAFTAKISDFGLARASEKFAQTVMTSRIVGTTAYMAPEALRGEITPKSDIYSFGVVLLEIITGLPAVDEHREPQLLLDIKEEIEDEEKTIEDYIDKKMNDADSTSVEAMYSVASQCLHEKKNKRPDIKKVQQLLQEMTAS
# test.details: biochemical
# Format: biochemical
# protocol.conditions: IRAK4 enzyme, TR-FRET (HTRF), 500 μM ATP
pIC50: −log10 of the molar value.

[
  {
    "molecule": "COC(=O)N[C@H]1C[C@@H](Nc2cc(-c3ccc4cc(C#N)cnn34)ncc2C(=O)NC[C@@H](F)C(C)(C)O)C1 [Example 457]",
    "measurement.qualifier": "=",
    "pIC50": 8.52
  },
  {
    "molecule": "COC(=O)NC1CC2(C1)CC(Nc1cc(-c3ccc4cc(C#N)cnn34)ncc1C(=O)NC[C@@H](F)C(C)(C)O)C2 (some centres unmarked) [Example 754]",
    "measurement.qualifier": ">",
    "pIC50": 9.00
  },
  {
    "molecule": "CNC(=O)O[C@@H]1CCC[C@H](Nc2cc(-c3ccc4cc(C#N)cnn34)ncc2C(=O)NC[C@@H](F)C(C)(C)O)C1 [Example 748]",
    "measurement.qualifier": ">",
    "pIC50": 9.00
  },
  {
    "molecule": "CC1(O)CCCC(Nc2cc(-c3ccc4cc(C#N)cnn34)ncc2C(=O)NC[C@@H](F)C(C)(C)O)C1 (single isomer, unassigned) [Example 529]",
    "measurement.qualifier": "=",
    "pIC50": 9.00
  },
  {
    "molecule": "COC(C)(C)[C@H](F)CNC(=O)c1cnc(-c2ccc3cc(C#N)cnn23)cc1NC12CC(NC(C)=O)(C1)C2 [Example 495]",
    "measurement.qualifier": ">",
    "pIC50": 9.00
  },
  {
    "molecule": "CNC(=O)c1cnc(-c2ccc3cc(C#N)cnn23)cc1NC12CCC(C(=O)NC)(CC1)C2 [Example 468]",
    "measurement.qualifier": "=",
    "pIC50": 9.00
  },
  {
    "molecule": "N#CCNC(=O)c1cnc(-c2ccc3cc(C#N)cnn23)cc1NC1CC2(CC(O)C2)C1 (centres unmarked) [Example 453]",
    "measurement.qualifier": ">",
    "pIC50": 9.00
  },
  {
    "molecule": "N#Cc1cnn2c(-c3cc(NC45CCC(O)(CC4)CC5)c(C(=O)NCc4ncco4)cn3)ccc2c1 [Example 621]",
    "measurement.qualifier": "=",
    "pIC50": 9.00
  },
  {
    "molecule": "CC(C)(O)[C@H](F)CNC(=O)c1cnc(-c2ccc3cc(C#N)cnn23)cc1N[C@H]1CC[C@H](c2ccon2)CC1 [Example 777]",
    "measurement.qualifier": ">",
    "pIC50": 9.00
  },
  {
    "molecule": "CC(C)(O)[C@H](F)CNC(=O)c1cnc(-c2ccc3cc(C#N)cnn23)cc1Nc1ncccn1 [Example 587]",
    "measurement.qualifier": "=",
    "pIC50": 8.52
  },
  {
    "molecule": "CC(C)(O)[C@H](F)CNC(=O)c1cnc(-c2ccc3cc(C#N)cnn23)cc1N[C@H]1C[C@H](CNC(=O)CC(F)(F)F)C1 [Example 655]",
    "measurement.qualifier": ">",
    "pIC50": 9.00
  },
  {
    "molecule": "CC(C)(O)[C@H](F)CNC(=O)c1cnc(-c2ccc3cc(C#N)cnn23)cc1NC12CCC(N3CCC3=O)(CC1)CC2 [Example 405]",
    "measurement.qualifier": "=",
    "pIC50": 9.00
  },
  {
    "molecule": "CC(C)(O)[C@H](F)CNC(=O)c1cnc(-c2ccc3cc(C#N)cnn23)cc1N[C@H]1C[C@H](C(C)(C)O)C1 [Example 548]",
    "measurement.qualifier": "=",
    "pIC50": 9.00
  },
  {
    "molecule": "COC(=O)NCCCNc1cc(-c2ccc3cc(C#N)cnn23)ncc1C(=O)NC[C@@H](F)C(C)(C)O [Example 716]",
    "measurement.qualifier": ">",
    "pIC50": 9.00
  }
]

* * *

# System: TNFα
# test.details: cells
# Assay type: cell-based, human
# protocol.conditions: Homo sapiens, Monocyte, LPS-stimulated human monocytes, TNFα content; read-out: EC50 TNF
pEC50: −log10 of the molar value.

[
  {
    "molecule": "CC(C)Nc1cc(-c2ccc3cc(C#N)cnn23)ncc1C(N)=O",
    "pEC50": 6.29
  },
  {
    "molecule": "CN(C)C(=O)N1CCC(Nc2cc(-c3ccc4cc(C#N)cnn34)ncc2C(=O)NC[C@@H](F)C(C)(C)O)CC1",
    "pEC50": 6.66
  },
  {
    "molecule": "CC(C)(O)[C@H](F)CNC(=O)c1cnc(-c2ccc3cc(C#N)cnn23)cc1Nc1ccc2c(c1)CNC2=O",
    "pEC50": 6.97
  },
  {
    "molecule": "CC(C)Nc1cc(-c2ccc3cc(C#N)cnn23)ncc1C(=O)NCC1CCS(=O)(=O)C1 (stereo not shown)",
    "pEC50": 6.92
  },
  {
    "molecule": "CC(C)(O)[C@H](F)CNC(=O)c1cnc(-c2ccc3cc(C#N)cnn23)cc1NC1CC2(CNC(=O)O2)C1 (stereo partly shown)",
    "pEC50": 6.81
  },
  {
    "molecule": "CC(C)Nc1cc(-c2ccc3cc(C#N)cnn23)ncc1C(=O)NC1CCC(S(C)(=O)=O)CC1 (stereo not shown)",
    "pEC50": 6.14
  },
  {
    "molecule": "COC(=O)C1CC2(CC(NC(=O)c3cnc(-c4ccc5cc(C#N)cnn45)cc3NC(C)C)C2)C1 (stereo not shown)",
    "pEC50": 6.29
  }
]

* * *

# target.desc: IRAK4 enzyme (Homo sapiens (Human))
# test.details: biochemical
# Assay type: biochemical
# protocol.conditions: IRAK4 enzyme, TR-FRET, 500 μM ATP
pIC50: −log10 of the molar value.

[
  {
    "smiles.record": "CC(C)(O)[C@H](F)CNC(=O)c1cnc(-c2ccc3cc(C#N)cnn23)cc1Nc1ccc(C(=O)N2CCC2)cc1",
    "target.desc": "IRAK4 enzyme (Homo sapiens (Human))",
    "measurement.qualifier": "=",
    "pIC50": 9.00
  },
  {
    "smiles.record": "CC(C)(O)[C@H](F)CNC(=O)c1cnc(-c2ccc3cc(C#N)cnn23)cc1Nc1nc(-c2ccc(Oc3ccccc3)cc2)cs1",
    "target.desc": "IRAK4 enzyme (Homo sapiens (Human))",
    "measurement.qualifier": "=",
    "pIC50": 6.21
  },
  {
    "smiles.record": "CC1(F)CN(C(=O)CNC(=O)c2cnc(-c3ccc4cc(C#N)cnn34)cc2NC23CCC(O)(CC2)CC3)C1",
    "target.desc": "IRAK4 enzyme (Homo sapiens (Human))",
    "measurement.qualifier": "=",
    "pIC50": 9.00
  },
  {
    "smiles.record": "CC(C)Nc1cc(-c2ccc3cc(C#N)cnn23)ncc1C(=O)NCC(=O)C(C)(C)O",
    "target.desc": "IRAK4 enzyme (Homo sapiens (Human))",
    "measurement.qualifier": ">",
    "pIC50": 9.00
  }
]
